tested on: rodent lifetime carcinogenesis bioassay, tumor incidence TD50; assay: carcinogenic potency in animals, long-term in vivo studies, CPDB compilation (AID 1745844); settings: rat; strain Fischer 344; males; in drinking water; site: liver; lesion: hemangiosarcoma; dosed 30 weeks; study length 95 weeks
value-type: TD50 (mg/kg/day)
Answer with a number only, understood to be in mg/kg/day.

Inquiry: Data request, read-out TD50, for CCN=[N+](C)[O-]
Reply text: 302

====

test system: rodent lifetime carcinogenesis bioassay, tumor incidence TD50; assay: carcinogenic potency in animals, long-term in vivo studies, CPDB compilation (AID 1745844); settings: mouse; strain NZO/BlGd; females; in drinking water; site: oropharynx; lesion: several types; types named in the paper; dosed 32 weeks; study length 74 weeks
value-type: TD50

Inquiry: Quick one: TD50 for O=NN1CCCCCC1 ?
Reply text: 6.37 mg/kg/day
